- TARGET OR TEST SYSTEM: rat 5-HT7 receptor (Rattus norvegicus (Rat), UniProt P32305)
- Sequence (P32305 1-435): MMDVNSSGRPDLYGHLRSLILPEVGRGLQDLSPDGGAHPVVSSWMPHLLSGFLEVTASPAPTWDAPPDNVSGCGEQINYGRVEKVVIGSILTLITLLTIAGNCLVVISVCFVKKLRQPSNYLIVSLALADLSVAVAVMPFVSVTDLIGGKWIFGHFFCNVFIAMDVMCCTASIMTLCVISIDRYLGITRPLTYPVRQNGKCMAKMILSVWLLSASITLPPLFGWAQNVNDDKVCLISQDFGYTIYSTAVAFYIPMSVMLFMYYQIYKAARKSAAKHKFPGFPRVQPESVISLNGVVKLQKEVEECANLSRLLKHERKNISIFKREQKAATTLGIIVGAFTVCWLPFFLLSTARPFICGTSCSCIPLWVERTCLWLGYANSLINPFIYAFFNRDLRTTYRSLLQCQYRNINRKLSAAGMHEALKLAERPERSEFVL
- PROTOCOL NOTES: r5-HT7 binding assay, competitive radioligand binding with [3H]5-CT
- CONDITIONS: rat 5-HT7 receptor, HEK-293 membranes
pKi: −log10 of the molar value. Counter-ions that a name gives are not always drawn.
OBSERVED PROPERTY: pKi

These solved cases illustrate the format of a correct answer.
1) Clc1cccc(COc2cc(Cl)ccc2O[C@H]2CCNC2)c1 ... < 5.60
2) Cc1nc(C(F)(F)F)ccc1COc1ccc(Cl)cc1OC1CNC1 ... < 5.00

Let us examine a further case.
Looking up O=C(O)C(Oc1ccc(Cl)cc1OC1CNC1)c1ccccc1 (stereo not drawn) [Example 149, hydrochloride] , I found its pKi recorded as < 5.00

----------
- TARGET OR TEST SYSTEM: r5-HT7 receptor (Rattus norvegicus (Rat))
- Sequence (P32305 1-435): as above
- PROTOCOL NOTES: HitHunter cAMP assay, antagonist testing against 100 nM 5-CT
- Assay type: cell-based
- CONDITIONS: antagonist testing, 100 nM 5-CT challenge, HEK-293 r5-HT7; read-out: R5HT7 cAMP pKb (converted)
OBSERVED PROPERTY: Kb (nM)
# number only, unit nM dropped from output

1) Brc1ccc(Oc2ccccc2)c(OC2CNC2)c1 ... 251
2) CCN1CC(Oc2cc(Br)ccc2OCc2cccc(Cl)c2)C1 ... 3.98
3) FC(F)(F)c1cccc(COc2ccc(Cl)cc2OC2CNC2)n1 ... 50.1
4) FC(F)(F)c1ccc2c(c1)C(Oc1ccc(Br)cc1OC1CNC1)CC2 (racemic) ... 5.01

Lookup result for `CN1CC[C@@H](Oc2cc(Cl)ccc2OCc2cccc(Cl)c2)C1` ; measured Kb: 15.8

Origin of the recorded values: patent US9981909B2
